# key: entry, value: TGI
System: SF-268 CNS
experimental-details: NCI tumour cell line growth inhibition, 48 h

Solved cases (8 shown):
{"compound": "O=[N+]([O-])c1ccc(C2ON=C(c3ccccc3)N2C23CC4CC(CC(C4)C2)C3)cc1 (stereo unspecified)", "measured-attribute": "TGI", "test-value": "> 10 µM"}
{"compound": "CC(/C=C/C(O)=C1/C(=O)CNC1=O)=C\\[C@@H](C)[C@H]1O[C@@]2(C)O[C@H](C(=O)[C@@H]3O[C@@]32C)[C@@H]1C", "measured-attribute": "TGI", "test-value": "43.9 µM"}
{"compound": "CCN1[C@@H](C(=O)NC23CCC(C(=O)O)(CC2)CC3)[C@H](c2cccc(Cl)c2F)[C@]2(C(=O)Nc3cc(Cl)ccc32)C12CCCCC2", "measured-attribute": "TGI", "test-value": "15.1 µM"}
{"compound": "Cn1c(=Nc2ccc(Cl)cc2)sc2ccccc21", "measured-attribute": "TGI", "test-value": "> 100 µM"}
{"compound": "O=c1[nH]ncc2[nH]c3c4ccccc4ccc3c12", "measured-attribute": "TGI", "test-value": "> 100 µM"}
{"compound": "Nc1nc(N)c2cc(Sc3ccc4ccccc4c3)ccc2n1", "measured-attribute": "TGI", "test-value": "4.19 µM"}
{"compound": "Nc1nc2ccc(Sc3ccc4nc(N)[nH]c(=O)c4c3)cc2c(=O)[nH]1", "measured-attribute": "TGI", "test-value": "> 100 µM"}
{"compound": "O=C1/C(=C\\c2ccco2)Oc2ccccc21", "measured-attribute": "TGI", "test-value": "> 100 µM"}

Q: State the recorded TGI for this entry: CN/N=C(/c1nc2ccc([N+](=O)[O-])cc2[nH]c1=O)C(O)c1ccc(C(O)/C(=N\NC)c2nc3ccc([N+](=O)[O-])cc3[nH]c2=O)cc1 (stereo unspecified)
A: > 100 µM

Q: # query: TGI of entry Cc1ccc(-c2c(-c3ccccc3)[nH]c(C)c2C(=O)ONC(=O)c2ccccc2)cc1
A: 7.31 µM

Q: Given the compound Nc1c(C(=O)c2cccc(C#CCN3CCCCC3)c2)cnn1-c1ccc(F)cc1 , what is its reported TGI?
A: > 25 µM

Q: Need TGI, item C/C(=N\NC(=S)N1CCC(N2CCCCC2)CC1)c1ccccn1
A: 12.9 µM

Q: Any idea what its TGI is? The compound is O=Cc1ccc(OC[C@H]2COC(=O)N2)cc1
A: > 100 µM

Q: Please report the recorded TGI for CN(C)N1C(=O)SCC(c2ccccc2)(c2ccccc2)C1=O .
A: > 100 µM

Q: // returns reported TGI for input CC(=O)OC(C(=O)[O][Sn]([CH3])([CH3])[CH3])c1ccccc1 (stereo unspecified)
A: > 100 µM

Q: I'd like to know its TGI. The compound in question is CCc1ccc2[nH]c(O)c(C3=Nc4ccccc4C3=O)c2c1
A: 90.6 µM
